Reported Plant response rating, Wheat values for the following compounds.
Tested on: wheat
Assay: Test A postemergence
Format: in vivo, Triticum aestivum
Settings: 500 g ai/ha, 0 to 100 scale, 0 no effect, 100 complete control
Kindly provide the number alone.

Example entries begin here.
| structure-notation | assay-system | obs-value |
| --- | --- | --- |
| COc1ccc(Oc2ncc(Br)cn2)c(-n2cc(Br)cn2)c1 | wheat | 0 |
| Cc1cnc(Oc2ccccc2-n2cc(Cl)cn2)nc1 | wheat | 10 |
| Cc1cccc(Oc2ncc(Br)cn2)c1-n1cc(Br)cn1 | wheat | 40 |
| O=[N+]([O-])c1cccc(Oc2ncc(Cl)cn2)c1-n1cc(Br)cn1 | wheat | 10 |

Shift focus to the following entry.
Input line: Data request, read-out Plant response rating, Wheat, for Brc1cnc(Oc2ccccc2-n2ccc(Br)n2)nc1
Output line: 20

* * *

Tested on: sedge, umbrella
Test: Test C flooded paddy test
Assay type: in vivo, Cyperus difformis
Settings: Flood, 31 g ai/ha; scale 0 to 100 (0 no effect, 100 complete control), 13 to 15 days
readout-type: Plant response rating, Sedge, Umbrella
Kindly provide the number alone.

| compound | obs-value |
| --- | --- |
| Fc1cnc(Oc2cccc(C(F)F)c2-n2cc(C(F)(F)F)cn2)nc1 [Compound 164] | 0 |
| N#Cc1cnn(-c2c(C#N)cccc2Oc2ncc(Cl)cn2)c1 [Compound 200] | 0 |
| FC(F)c1cccc(Oc2ncc(Cl)cn2)c1-n1cc(I)cn1 [Compound 184] | 0 |

Shift focus to the following entry.
Input line: Data request, read-out Plant response rating, Sedge, Umbrella, for FC(F)(F)c1cnn(-c2c(Br)cccc2Oc2ncc(Cl)cn2)c1 [Compound 191]
Output line: 40

* * *

Tested on: large (Lg) crabgrass
Test: Test A postemergence
Type: in vivo, Digitaria sanguinalis
Conditions: 125 g ai/ha, 0 to 100 scale where 0 is no effect and 100 is complete control
Reported Plant response rating, Crabgrass, Large values for the following molecules.

Example entries begin here.
| molecule | assay-system | readout-type | obs-value |
| --- | --- | --- | --- |
| Cc1cnn(-c2c(C#N)cccc2Oc2ncc(Cl)cn2)c1 [Compound 95] | large (Lg) crabgrass | Plant response rating, Crabgrass, Large | 40 |
| N#Cc1cccc(Oc2ncc(Br)cn2)c1-n1cc(Br)cn1 [Compound 57] | large (Lg) crabgrass | Plant response rating, Crabgrass, Large | 90 |
| CC=Cc1cnn(-c2ccccc2Oc2ncc(Cl)cn2)c1 [Compound 27] | large (Lg) crabgrass | Plant response rating, Crabgrass, Large | 20 |
| FC(F)(F)c1cccc(Oc2ncc(Br)cn2)c1-n1cc(Br)cn1 [Compound 77] | large (Lg) crabgrass | Plant response rating, Crabgrass, Large | 50 |
| N#Cc1cnn(-c2ccccc2Oc2ncc(Cl)cn2)c1 [Compound 33] | large (Lg) crabgrass | Plant response rating, Crabgrass, Large | 20 |

Shift focus to the following entry.
Input line: Data request, read-out Plant response rating, Crabgrass, Large, for Fc1cnc(Oc2cccc(C(F)F)c2-n2cc(Cl)cn2)nc1 [Compound 94]
Output line: 50

* * *

Test system: kochia
Experiment: Test A preemergence
Type: in vivo, Kochia scoparia
Settings: 31 g ai/ha, 0 to 100 scale where 0 is no effect and 100 is complete control, visual, approximately 10 days
Reported Plant response rating, Kochia values for the following molecules.

Example entries begin here.
| structure-notation | Plant response rating, Kochia |
| --- | --- |
| Fc1cnc(Oc2ccccc2-n2cc(SC(F)(F)F)cn2)nc1 | 0 |
| Fc1cnc(Oc2cccc(Br)c2-n2cc(OCC(F)(F)F)cn2)nc1 | 60 |
| N#Cc1cnn(-c2c(CF)cccc2Oc2ncc(Br)cn2)c1 | 0 |
| Cc1cc(C(F)(F)F)nn1-c1ccccc1Oc1ncc(Cl)cn1 | 0 |

Shift focus to the following entry.
Input line: Data request, read-out Plant response rating, Kochia, for FC(F)(F)c1cnn(-c2c(Oc3ncc(Cl)cn3)cccc2-c2ncon2)c1
Output line: 40

* * *

Test system: morningglory
Assay: Test A postemergence
Type: in vivo, Ipomoea spp.
Conditions: 500 g ai/ha, 0 to 100 scale where 0 is no effect and 100 is complete control
Reported Plant response rating, Morningglory values for the following compounds.
Kindly provide the number alone.

Example entries begin here.
| compound | assay-system | Plant response rating, Morningglory |
| --- | --- | --- |
| FC(F)c1cnn(-c2c(Br)cccc2Oc2ncc(Cl)cn2)c1 [Compound 232] | morningglory | 90 |
| Cc1cnc(Oc2cccc(C#N)c2-n2cc(Br)cn2)nc1 [Compound 76] | morningglory | 90 |
| O=Cc1cccc(Oc2ncc(Br)cn2)c1-n1cc(Cl)cn1 [Compound 206] | morningglory | 0 |

Input line: Tell me reported Plant response rating, Morningglory for N#Cc1cccc(Oc2ncc(Cl)cn2)c1-n1cc(Cl)cn1 [Compound 72] , tested with morningglory.
Output line: 100

* * *

Reported Plant response rating, Blackgrass values for the following compounds.
Tested on: blackgrass
Test: Test A postemergence
Assay type: in vivo, Alopecurus myosuroides
Settings: 500 g ai/ha, 0 to 100 scale where 0 is no effect and 100 is complete control

Example entries begin here.
| compound | Plant response rating, Blackgrass |
| --- | --- |
| CC(F)c1cccc(Oc2ncc(Cl)cn2)c1-n1cc(Br)cn1 (centres unmarked) | 70 |
| Clc1cnc(Oc2cccc(Br)c2-n2cc(I)nn2)nc1 | 80 |
| COc1ccc(C#N)c(-n2cc(Br)cn2)c1Oc1ncc(Cl)cn1 | 50 |

Input line: Data request, read-out Plant response rating, Blackgrass, for FC(F)c1cn(-c2ccccc2Oc2ncc(Cl)cn2)nn1
Output line: 100

Input line: Data request, read-out Plant response rating, Blackgrass, for Cc1cnc(Oc2cccc(C#N)c2-n2cc(C#N)cn2)nc1
Output line: 70

* * *

Test system: wild oat
Test: Test C postemergence
Format: in vivo, Avena fatua
Conditions: 16 g ai/ha, postemergence; 0 is no effect, 100 is complete control
readout-type: Plant response rating (0 to 100), Oat, Wild
Kindly provide the number alone.

| molecule | obs-value |
| --- | --- |
| Clc1cnc(Oc2ccccc2-n2cc(Br)nn2)nc1 [Compound 223] | 0 |
| Clc1cnc(Oc2cccc(Br)c2-n2cc(Cl)cn2)nc1 [Compound 221] | 5 |
| FCc1cn(-c2ccccc2Oc2ncc(Cl)cn2)nn1 [Compound 123] | 0 |
| O=Cc1cccc(Oc2ncc(I)cn2)c1-n1cc(Br)cn1 [Compound 172] | 0 |
| FC(F)c1cnn(-c2c(Br)cccc2Oc2ncc(Cl)cn2)c1 [Compound 232] | 0 |
| N#Cc1cnn(-c2c(Br)cccc2Oc2ncc(Cl)cn2)c1 [Compound 140] | 0 |
| FCc1cccc(Oc2ncc(F)cn2)c1-n1cc(I)cn1 [Compound 152] | 0 |

Input line: Data request, read-out Plant response rating (0 to 100), Oat, Wild, for Clc1cnc(Oc2cccc(Cl)c2-n2cc(Cl)cn2)nc1 [Compound 220]
Output line: 5

* * *

System: giant foxtail
Assay: Test E preemergence
Type: in vivo, Setaria faberii
Settings: 62 g ai/ha, scale 0 to 100 (0 no effect, 100 complete control)
Description: […]
Reported Foxtail, Giant plant response rating values for the following compounds.
Kindly provide the number alone.

Example entries begin here.
| compound | obs-value |
| --- | --- |
| FC(F)c1cccc(Oc2ncc(Cl)cn2)c1-n1cc(C(F)(F)F)cn1 [Compound 170] | 100 |
| N#Cc1cccc(Oc2ncc(Cl)cn2)c1-n1cc(Cl)cn1 [Compound 72] | 95 |
| N#Cc1cnn(-c2c(C#N)cccc2Oc2ncc(Cl)cn2)c1 [Compound 200] | 0 |

Shift focus to the following entry.
Input line: Data request, read-out Foxtail, Giant plant response rating, for N#Cc1cccc(Oc2ncc(Cl)cn2)c1-n1cc(Br)cn1 [Compound 52]
Output line: 70

* * *

System: oilseed rape
Assay: Test C preemergence
Type: in vivo, Brassica napus
Settings: 62 g ai/ha, preemergence; scale 0 (no effect) to 100 (complete control)
readout-type: Oilseed Rape plant response rating

| structure-notation | assay-system | readout-type | obs-value |
| --- | --- | --- | --- |
| N#Cc1cccc(Oc2ncc(Cl)cn2)c1-n1cc(OC(F)F)cn1 | oilseed rape | Oilseed Rape plant response rating | 98 |
| FC(F)c1cccc(Oc2ncc(Cl)cn2)c1-n1cc(C(F)(F)F)cn1 | oilseed rape | Oilseed Rape plant response rating | 98 |
| N#Cc1cccc(Oc2ncc(Cl)cn2)c1-n1cc(Cl)cn1 | oilseed rape | Oilseed Rape plant response rating | 100 |

Input line: Data request, read-out Oilseed Rape plant response rating, for N#Cc1cnn(-c2c(C#N)cccc2Oc2ncc(Br)cn2)c1
Output line: 95

* * *

Test system: galium
Experiment: Test A postemergence
Type: in vivo, Galium aparine
Settings: 125 g ai/ha, 0 to 100 scale, 0 no effect, 100 complete control
readout-type: Plant response rating, Galium
Kindly provide the number alone.

Example entries begin here.
| compound | obs-value |
| --- | --- |
| FC(F)(F)c1cnn(-c2c(Oc3ncc(Cl)cn3)cccc2-c2ncon2)c1 [Compound 279] | 80 |
| FC(F)Oc1cnn(-c2c(Cl)cccc2Oc2ncc(Cl)cn2)c1 [Compound 258] | 90 |

Input line: Data request, read-out Plant response rating, Galium, for Cc1cc(C(F)(F)F)nn1-c1ccccc1Oc1ncc(Cl)cn1 [Compound 266]
Output line: 0

Input line: Data request, read-out Plant response rating, Galium, for N#Cc1cnn(-c2c(Oc3ncc(F)cn3)cccc2C(F)F)c1 [Compound 240]
Output line: 100

Input line: Data request, read-out Plant response rating, Galium, for Fc1cnc(Oc2ccccc2-n2cc(SC(F)(F)F)cn2)nc1 [Compound 247]
Output line: 30
